- Test system: DF15/PR cell line
- method-notes: Proliferation assay
- Assay type: cell-based
- setup-conditions: 1q amp 3×, BRD4/BET inhibition
property-label: IC50 (nM)
Give the value, in units of nM, as a plain number.

Ask | Recall the recorded IC50 for Cn1cc(-c2cc(S(C)(=O)=O)ccc2OCC2CC2)c2ccccc2c1=O [Compound A] with DF15/PR cell line and state it.
Reply | 35.9

Ask | Item Cc1sc2c(c1C)C(c1ccc(Cl)cc1)=N[C@@H](CC(=O)OC(C)(C)C)c1nnc(C)n1-2 [JQ1] with DF15/PR cell line - IC50?
Reply | 37.8

====

- Test system: AMO1 NEK2 shRNA (NEK2 knocked-down) cells
- method-notes: Proliferation assay in NEK2 knocked-down cells
- Assay type: cell-based
- setup-conditions: Homo sapiens; NEK2 knocked-down AMO1 cells
So I've got a bunch of compounds here, and I need their IC50 values.
The reply should consist of the numeric value with the unit placed after it.

Ask | Which IC50 is reported for this compound? "N#Cc1ccc(N2CCN(Cc3ccc(COc4cccc5c4CN([C@H]4CCC(=O)NC4=O)C5=O)cc3)CC2)c(F)c1"
Reply | 0.00289 µM

Ask | Any idea what IC50 was measured for "O=C1CC[C@H](N2Cc3c(OCc4ccc(CN5CCOCC5)cc4)cccc3C2=O)C(=O)N1" ?
Reply | 0.0187 µM
